Experiment: Saturation mutagenesis of SEQ ID NO:109: dicamba decarboxylation activity of point mutants (CO2 released), fold of backbone (Tables 7, 8, Megatable 1)
Conditions: decarboxylation activity (CO2 released) of point mutant vs unmutated backbone protein; backbone SEQ ID NO: 109
For each record, write down the corresponding Fold Activity.
Respond with the figure and its unit, in that order.

{"Molecule": "53 (protein, listed as Granulicella tundricola) MARTITLEEHFVTDSFLRATGAYDKPAPPWLAQLQPKLLDLGDGRIAAMDEAGIDLQVLSLAALGFDALDAATATPLVHDINDELAAAVRANPTRLAAFASLALKDPQSAARELERAIQKLGFRGVLLDGTTDGLFLDDPRFTPVFEAAVALNVPIYLHPAPPPESVFDTYFTGLPEGVGQMLSIAGWGWHAETALHTLRLITNGVFDRYPTLQLIIGHMGEMLPMALARTSKALSHAARLRQPVAAYFQSNIHLTTSGYFTQPPLRCALDVVGIDRLMFSIDYPFSANTLGRDYLTELEQTLTPEDLAKLIHRNAESLLNLS", "Fold Activity": "1.6 fold"}

Which Fold Activity value belongs to 138 (protein, Dicamba decarboxylase variant) MAQGKVALEEHFAIPETLQDSAGFVPGDYWKELQHRLLDIQDTRLKLMDAHGIETMILSLAAPAVQAIPDRRKAIEIARRANDFLAEECAKRPDRFLAFAALPLQDPDAATEELQRCVNDLGFVGALVNGFSQEGDGQTPLYYDLPQYRPFWGEVEKLDVPFYLHPRNPLPQDSRIYDGHPWLLGPTWAFAQETAVHALRLMASGLFDEHPRLNIILGHMGEGLPYMMYRIDHRIAWVHEPPRYPAKRRFMDYFNENFHITTSGNFRTQTLIDAILEIGADRILFSTDWPFENIDHAADWFNATSIAEADRLKIGRTNARRLFKLDLD ?
0.7 fold
